Test: Cytotoxicity testing of compounds (cell titer-Glo), second round
Type: cell-based
Conditions: human
Hi there, I'd appreciate the recorded viability at 5 days for every entry that follows.
Note: unit % is implicit; provide only the numeric part.

Exercise: # query: viability at 5 days of entry CC[C@@]1(O)C(=O)OCc2c1cc1n(c2=O)Cc2c-1nc1cc(F)c(C(C)C)c3c1c2[C@H](N)CC3
Solution: 23.8

Exercise: # query: viability at 5 days of entry CC[C@@]1(O)C(=O)OCc2c1cc1n(c2=O)Cc2c-1nc1cc(F)c(C)c3c1c2CC[C@H]3N
Solution: 14.5

Exercise: # query: viability at 5 days of entry CC[C@@]1(O)C(=O)OCc2c1cc1n(c2=O)Cc2c-1nc1cc(F)c(C)c3c1c2CC(N)C3 (mixture of isomers)
Solution: 19.4

Exercise: # query: viability at 5 days of entry CC[C@@]1(O)C(=O)OCc2c1cc1n(c2=O)Cc2c-1nc1cc(F)c(C)c3c1c2[C@H](Nc1cccc(CN)c1)CC3
Solution: 83

Exercise: # query: viability at 5 days of entry CC[C@@]1(O)C(=O)OCc2c1cc1n(c2=O)Cc2c-1nc1cc(F)c(C)c3c1c2CC[C@@H]3N
Solution: 20.3

Exercise: # query: viability at 5 days of entry CCc1c(F)cc2nc3c(c4c2c1CC[C@H]4N)Cn1c-3cc2c(c1=O)COC(=O)[C@]2(O)CC
Solution: 19.7

Exercise: # query: viability at 5 days of entry CCc1c(F)cc2nc3c(c4c2c1CC[C@@H]4N)Cn1c-3cc2c(c1=O)COC(=O)[C@]2(O)CC
Solution: 23.6

Exercise: # query: viability at 5 days of entry CC[C@@]1(O)C(=O)OCc2c1cc1n(c2=O)Cc2c-1nc1cc(F)c(C(C)C)c3c1c2[C@@H](N)CC3
Solution: 30.6

====

Experiment: Cytotoxicity testing of compounds (cell titer-Glo)
Type: cell-based
Details: human, Min cell viability
Method: They were then incubated at 37° C., 5% CO2 for overnight. […] After 5 days, 30 μL cell titer-Glo Luminescent buffer was added to each well and the plate was incubated for 20 min at room temperature. Luminescence signal was detected by the Envison microplatereader.
Reported property: viability at 5 days

Exercise: # query: viability at 5 days of entry CCc1c(F)cc2nc3c(c4c2c1CC[C@@H]4N)Cn1c-3cc2c(c1=O)COC(=O)[C@]2(O)CC [Compound C-2b]
Solution: 1.9%

Exercise: # query: viability at 5 days of entry CCc1c(F)cc2nc3c(c4c2c1CC[C@H]4N)Cn1c-3cc2c(c1=O)COC(=O)[C@]2(O)CC [Compound C-2a]
Solution: 4.6%

Data credit: patent US12291537B2
